The measurements presented in this section are drawn from patent US8598193B2.

EC50 by entry:
test system: RSV A2; assay: RSV antiviral cytopathic effect (CPE) assay, MTT readout; format: cell-based; details: human respiratory syncytial virus, HEp-2, 120 h; RSV A2 in HEp2 cells, CPE assay, MTT, approx. 5 days; read-out: Activity Range (RSV A2 antiviral EC50), compounds of Table 2

[
  {
    "Compound": "O=C(c1cccnc1)N1CCN2C(=O)c3ccccc3C12c1ccc(Cl)cc1 (stereo not drawn)",
    "Tested target": "RSV A2",
    "EC50": "< 0.1 µg/mL"
  },
  {
    "Compound": "O=C(Oc1ccc(C23c4ccccc4C(=O)N2CCN3C(=O)c2ccc(F)cc2)cc1)c1ccc(F)cc1 (stereo not drawn)",
    "Tested target": "RSV A2",
    "EC50": "0.25 to 1 µg/mL"
  },
  {
    "Compound": "CCc1ccc(C23c4ccccc4C(=O)N2CCN3C(=O)Cc2ccc(OC)cc2)cc1 (stereo not drawn)",
    "Tested target": "RSV A2",
    "EC50": "0.25 to 1 µg/mL"
  },
  {
    "Compound": "O=C1c2ccccc2C2(c3ccc(Cl)cc3)N1CCN2C(=O)[C@@H]1CSC(c2cccs2)=N1 (stereo partly drawn)",
    "Tested target": "RSV A2",
    "EC50": "0.25 to 1 µg/mL"
  },
  {
    "Compound": "COc1ccc(NC(=O)N2CCN3C(=O)c4ccccc4C23c2ccc(C)cc2)cc1 (stereo not drawn)",
    "Tested target": "RSV A2",
    "EC50": "0.1 to 0.25 µg/mL"
  },
  {
    "Compound": "O=C(CSc1ncccn1)N1CCN2C(=O)c3ccccc3C12c1ccc(Cl)cc1 (stereo not drawn)",
    "Tested target": "RSV A2",
    "EC50": "0.25 to 1 µg/mL"
  },
  {
    "Compound": "O=C(c1ccc(F)nc1)N1CCN2C(=O)c3ccccc3C12c1ccc(Cl)cc1 (stereo not drawn)",
    "Tested target": "RSV A2",
    "EC50": "< 0.1 µg/mL"
  },
  {
    "Compound": "COc1ccc(-c2ocnc2C(=O)N2CCN3C(=O)c4ccccc4C32c2ccc(Cl)cc2)cc1 (stereo not drawn)",
    "Tested target": "RSV A2",
    "EC50": "< 0.1 µg/mL"
  },
  {
    "Compound": "Cc1nonc1C(=O)N1CCN2C(=O)c3ccccc3C21c1ccc(Cl)cc1 (stereo not drawn)",
    "Tested target": "RSV A2",
    "EC50": "< 0.1 µg/mL"
  },
  {
    "Compound": "O=C(c1ccc(F)cc1)N1CCN2C(=O)c3ccccc3C12c1ccc(OCCCl)cc1 (stereo not drawn)",
    "Tested target": "RSV A2",
    "EC50": "0.1 to 0.25 µg/mL"
  },
  {
    "Compound": "O=C(CCCc1c[nH]c2ccccc12)N1CCN2C(=O)c3ccccc3C12c1ccc(Cl)cc1 (stereo not drawn)",
    "Tested target": "RSV A2",
    "EC50": "0.25 to 1 µg/mL"
  },
  {
    "Compound": "O=C(c1ccco1)N1CCN2C(=O)c3ccccc3C12c1ccc(Cl)cc1 (stereo not drawn)",
    "Tested target": "RSV A2",
    "EC50": "< 0.1 µg/mL"
  },
  {
    "Compound": "O=C(CCCc1ccccc1)N1CCN2C(=O)c3ccccc3C12c1ccc(Cl)cc1 (stereo not drawn)",
    "Tested target": "RSV A2",
    "EC50": "0.25 to 1 µg/mL"
  },
  {
    "Compound": "Nc1ccc(C(=O)N2CCN3C(=O)c4ccccc4C23c2ccc(Cl)cc2)cn1 (stereo not drawn)",
    "Tested target": "RSV A2",
    "EC50": "0.25 to 1 µg/mL"
  },
  {
    "Compound": "COc1ccc(CC(=O)N2CCN3C(=O)c4ccccc4C23c2ccc(C(F)(F)F)cc2)cc1 (stereo not drawn)",
    "Tested target": "RSV A2",
    "EC50": "0.25 to 1 µg/mL"
  },
  {
    "Compound": "N#CCOc1ccc(C23c4ccccc4C(=O)N2CCN3C(=O)c2ccc(F)cc2)cc1 (stereo not drawn)",
    "Tested target": "RSV A2",
    "EC50": "0.1 to 0.25 µg/mL"
  },
  {
    "Compound": "O=C(c1ccc(F)cc1)N1CCN2C(=O)c3ccccc3C12c1ccc(OCCCCCl)cc1 (stereo not drawn)",
    "Tested target": "RSV A2",
    "EC50": "0.25 to 1 µg/mL"
  },
  {
    "Compound": "O=C(c1ccc(F)cc1)N1CCN2C(=O)c3ccccc3C12c1ccc(OCc2ccccc2)cc1 (stereo not drawn)",
    "Tested target": "RSV A2",
    "EC50": "0.1 to 0.25 µg/mL"
  },
  {
    "Compound": "O=C(c1ccc(F)cc1)N1CCN2C(=O)c3ccccc3C12c1ccc(Br)cc1 (stereo not drawn)",
    "Tested target": "RSV A2",
    "EC50": "< 0.1 µg/mL"
  },
  {
    "Compound": "O=C(NCc1ccc(F)cc1)N1CCN2C(=O)c3ccccc3C12c1ccc(Cl)cc1 (stereo not drawn)",
    "Tested target": "RSV A2",
    "EC50": "0.1 to 0.25 µg/mL"
  },
  {
    "Compound": "COc1ccc(CCC(=O)N2CCN3C(=O)c4ccccc4C23c2ccc(Cl)cc2)cc1 (stereo not drawn)",
    "Tested target": "RSV A2",
    "EC50": "0.25 to 1 µg/mL"
  },
  {
    "Compound": "Cc1nc(C(=O)N2CCN3C(=O)c4ccccc4C23c2ccc(Cl)cc2)cs1 (stereo not drawn)",
    "Tested target": "RSV A2",
    "EC50": "0.25 to 1 µg/mL"
  },
  {
    "Compound": "CCCc1ccc(C23c4ccccc4C(=O)N2CCN3C(=O)CC)cc1 (stereo not drawn)",
    "Tested target": "RSV A2",
    "EC50": "0.25 to 1 µg/mL"
  },
  {
    "Compound": "CCOc1ccc(C23c4ccccc4C(=O)N2CCN3C(=O)c2ccc(F)cc2)cc1 (stereo not drawn)",
    "Tested target": "RSV A2",
    "EC50": "0.1 to 0.25 µg/mL"
  },
  {
    "Compound": "COc1ccc(CC(=O)N2CCN3C(=O)c4ccccc4C23c2ccc(Br)cc2)cc1 (stereo not drawn)",
    "Tested target": "RSV A2",
    "EC50": "0.1 to 0.25 µg/mL"
  },
  {
    "Compound": "O=C(c1csc(-c2cccnc2)n1)N1CCN2C(=O)c3ccccc3C12c1ccc(Cl)cc1 (stereo not drawn)",
    "Tested target": "RSV A2",
    "EC50": "< 0.1 µg/mL"
  },
  {
    "Compound": "NC(=O)COc1ccc(C23c4ccccc4C(=O)N2CCN3C(=O)c2ccc(F)cc2)cc1 (stereo not drawn)",
    "Tested target": "RSV A2",
    "EC50": "0.25 to 1 µg/mL"
  },
  {
    "Compound": "O=C(c1csc(-c2cccs2)n1)N1CCN2C(=O)c3ccccc3C12c1ccc(Cl)cc1 (stereo not drawn)",
    "Tested target": "RSV A2",
    "EC50": "0.1 to 0.25 µg/mL"
  },
  {
    "Compound": "O=C1c2ccccc2C2(c3ccc(Cl)cc3)N1CCN2C(=O)C1Cc2ccccc21 (stereo not drawn)",
    "Tested target": "RSV A2",
    "EC50": "0.25 to 1 µg/mL"
  },
  {
    "Compound": "O=C1c2ccccc2C2(c3ccc(Cl)cc3)N1CCN2C(=O)c1sccc1Cl (stereo not drawn)",
    "Tested target": "RSV A2",
    "EC50": "0.1 to 0.25 µg/mL"
  },
  {
    "Compound": "CCc1ccc(C23c4ccccc4C(=O)N2CCN3C(=O)c2ccc(F)cc2)cc1 (stereo not drawn)",
    "Tested target": "RSV A2",
    "EC50": "< 0.1 µg/mL"
  },
  {
    "Compound": "CCCc1ccc(C23c4ccccc4C(=O)N2CCN3C(=O)Cc2ccc(OC)cc2)cc1 (stereo not drawn)",
    "Tested target": "RSV A2",
    "EC50": "0.25 to 1 µg/mL"
  },
  {
    "Compound": "O=C(c1cccc(Cl)n1)N1CCN2C(=O)c3ccccc3C12c1ccc(Cl)cc1 (stereo not drawn)",
    "Tested target": "RSV A2",
    "EC50": "0.1 to 0.25 µg/mL"
  }
]
